Target: T1, BCL-2-D103Y (human, UniProt P10415 1-34; Q07817 33-48; P10415 92-207, D103Y, biotin (biotinylated for SPR; site not stated))
T1 construct: BCL-2, human, residues 1-34 of the chimera, as m6; BCL-XL, human, residues 33-48, in place of BCL-2 residues 35-50; BCL-2, human, residues 92-207; Chimera m6 with the clinical mutation D103Y; source: E. coli BL21 (DE3), purified (Ni-NTA, Superdex 75, RESOURCE Q, Superdex 200)
T1 sequence (P10415 other isoform, or with tags, fused parts or gaps D103Y | D103Y | D103Y D103Y): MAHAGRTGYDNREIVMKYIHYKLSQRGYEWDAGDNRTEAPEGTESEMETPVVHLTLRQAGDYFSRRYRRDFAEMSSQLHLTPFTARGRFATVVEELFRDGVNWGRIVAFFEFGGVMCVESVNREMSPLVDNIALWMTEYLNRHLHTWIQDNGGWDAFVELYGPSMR
Experiment: SPR; Biacore T200; biotinylated proteins immobilised on a CAP sensor chip; peptides flowed in multiple cycles (25-12800 nM, depending on the peptides) at 30 uL/min; 10 mM PBS, 50 uM EDTA, 0.05% Tween-20, 25 °C; affinity fitting, 1:1 binding model
Details: both partners purified
Positions of bridges follow the written chain, without caps; N, C: chain ends. No end group written: not given here. cADT = 2-aryl-4,5-dihydrothiazole (ADT) linker
// reported Kd per item

binder	Kd / nM
CPIRYEWDEFC (linker 1-11 via cADT (inferred), cyclic peptide from the second phage library CPXRYXWDXXC screened against BCL-2; they agree with I3, E6, E9 and F10 named in the text) [cp2]	210
CPIRYPWDVEC (linker 1-11 via cADT (inferred), cyclic peptide from the second phage library CPXRYXWDXXC screened against BCL-XL; they agree with P6, V9 and E10 named in the text) [cp3]	340
